The origin of these recorded values is patent US7091185B2.

system: S. aureus (methicillin resistant) ATCC 33591; conditions: ATCC 33591
Where no end group is shown, it is not given here.
quantityMeasured: MIC

H-LKKLLKKLLKKLLKKLLKKL-OH [LKKL (5), LKKL LKKL LKKL LKKL LKKL] = >250 µg/mL
H-KFAKKFAKKFAKKFAKKFAKKFAK-OH [KFAK (6), KFAK KFAK KFAK KFAK KFAK KFAK] = 125 to 250 µg/mL
H-RFARRFARRFARRFARRFARRFAR-OH [RFAR (6), RFAR RFAR RFAR RFAR RFAR RFAR] = 31 to 62 µg/mL

Moving on to the next substance.
Query: API: value(readout=MIC, system=S. aureus (methicillin resistant) ATCC 33591) for record LKLKLKLKLKLKLKLKLKLKLKLK [LK (12), LK LK LK LK LK LK LK LK LK LK LK LK]
Result: >250 µg/mL

* * *

system: Cr. Neoformans 32045; assay type: cell-based
Where no end group is shown, it is not given here.
quantityMeasured: MIC

# annotated cases, reported MIC shown
KAAKKAAKKAAKKAAKKAAKKAAKKAAK [KAAK (7), KAAK KAAK KAAK KAAK KAAK KAAK KAAK] = 62 to 125 µg/mL
KFKKFKKFKKFKKFKKFKKFK [KFK (7), KFK KFK KFK KFK KFK KFK KFK] = 40 to 62 µg/mL

Query: Consider the substance H-FKAFKAFKAFKAFKAFKAFKAFKA-OH [FKA (8), FKA FKA FKA FKA FKA FKA FKA FKA] and give its measured MIC.
Result: 16 to 32 µg/mL

Query: Moving on to the next substance: H-FKAFKAFKAFKAFKAFKAFKAFKAFKA-OH [FKA (9), FKA FKA FKA FKA FKA FKA FKA FKA FKA]
Result: 62 to 125 µg/mL

Query: How about H-LKKLLKKLLKKLLKKLLKKL-OH [LKKL (5), LKKL LKKL LKKL LKKL LKKL] ?
Result: 62 to 125 µg/mL

Query: // query: KFKKFKKFKKFKKFKKFK [KFK (6), KFK KFK KFK KFK KFK KFK]
Result: 40 to 62 µg/mL

Query: Follow-up entry: RFARRFARRFARRFARRFARRFARRFARRFAR [RFAR (8), RFAR RFAR RFAR RFAR RFAR RFAR RFAR RFAR]
Result: 62 to 125 µg/mL

Query: Entry LRLRLRLRLRLRLRLRLR [LR (9), LR LR LR LR LR LR LR LR LR] please
Result: 62 to 125 µg/mL

Query: Then what about the substance H-KKFAKKFAKKFAKKFAKKFAKKFA-OH [KKFA (6), KKFA KKFA KKFA KKFA KKFA KKFA] ?
Result: 32 to 62 µg/mL

Query: Repeat for the following substance: LKLKLKLKLKLKLKLKLKLKLKLK [LK (12), LK LK LK LK LK LK LK LK LK LK LK LK]
Result: 32 to 62 µg/mL

Query: # repeat for AKKFAKKFAKKFAKKFAKKFAKKF [AKKF (6), AKKF AKKF AKKF AKKF AKKF AKKF]
Result: 16 to 32 µg/mL

Query: Also H-LKLKLKLKLKLKLKLK-OH [LK (8), LK LK LK LK LK LK LK LK] , if possible.
Result: 32 to 63 µg/mL

Query: Now consider H-LKLKLKLKLKLKLKLKLKLKLK-OH [LK (11), LK LK LK LK LK LK LK LK LK LK LK] .
Result: 32 to 62 µg/mL

Query: Could you do the same for RFARRFARRFARRFARRFARRFARRFAR [RFAR (7), RFAR RFAR RFAR RFAR RFAR RFAR RFAR] , please?
Result: 62 to 125 µg/mL
